tested on: PPARγ; assay: PPARγ mRNA expression in adipocytes (real-time PCR); format: cell-based, human; settings: adipocytes, 250 nM oligomeric compound, day nine post-transfection, relative to control (1.0); Table 15
In the oligonucleotide strings, read from the 5' end, every base follows the letter of its sugar. An asterisk marks phosphorothioate; unmarked linkages are phosphodiester. Other units and linkages are bracketed, terminal groups are in braces. A string of capitals states the bases alone. e = 2'-O-(2-methoxyethyl) (MOE); [5mC] = 5-methylcytosine
API: label(entry) gives condition met if the entry's PPAR gamma (mRNA expression) is strictly smaller than 1; on equality or larger values it gives condition not met.

327925 (antisense eT*eA*eG*e[5mC]*eT*eG*eG*eT*eT*eG*eA*eA*eG*eG*eG*eG*eA*e[5mC]*e[5mC]*eA*eA) [compound 327925]; condition met
327941 (antisense eA*eA*e[5mC]*e[5mC]*e[5mC]*eA*e[5mC]*e[5mC]*eG*eA*e[5mC]*eA*eG*e[5mC]*eA*eA*eT*eG*eA*eA*eT*eG*eT*eT) [compound 327941]; condition met
327876 (antisense eA*eA*e[5mC]*eA*e[5mC]*eT*eG*eA*eT*eT*eT*e[5mC]*eA*eA*eA*eT*eG*eG*eT*eG*e[5mC]*eT*eA) [compound 327876]; condition met
327878 (antisense e[5mC]*eT*eA*eG*eT*eG*eG*eT*e[5mC]*e[5mC]*eT*eA*eA*eA*e[5mC]*eA*eT*eT*eT*e[5mC]*eA*e[5mC]) [compound 327878]; condition met
327892 (antisense eA*e[5mC]*eT*eT*eT*e[5mC]*eG*eG*eT*eT*eA*eT*e[5mC]*eT*eA*eG*e[5mC]*eT*eT*eT*eA) [compound 327892]; condition met
327933 (antisense eA*eA*eG*eG*eG*eA*eT*eT*e[5mC]*e[5mC]*eT*eG*eG*eG*eA*eA*eA*eA*e[5mC]*eT*eG*eG*eA*e[5mC]) [compound 327933]; condition not met
327901 (antisense eT*eG*eA*eG*e[5mC]*eT*eA*e[5mC]*eA*eG*eT*eG*e[5mC]*eT*eT*e[5mC]*eA*eT*e[5mC]*eT*e[5mC]*eA) [compound 327901]; condition met
327922 (antisense eT*e[5mC]*eA*eG*eT*eT*eT*eT*eG*e[5mC]*eA*eT*eG*eG*eA*eT*eT*eT*eG*e[5mC]*eA*e[5mC]*eA) [compound 327922]; condition not met
327889 (antisense eG*eT*eG*eG*eT*eA*eA*eT*e[5mC]*e[5mC]*e[5mC]*eT*eG*eG*e[5mC]*eA*eA*eT*eG*eT*eG*eA*eT) [compound 327889]; condition met
327934 (antisense eG*eG*eT*eA*e[5mC]*eA*eA*eT*e[5mC]*eA*eA*e[5mC]*eG*eG*eT*e[5mC]*eG*eA*eT*eG*eG*eT) [compound 327934]; condition met
327913 (antisense eA*eA*e[5mC]*e[5mC]*eG*eA*eT*eT*eT*e[5mC]*eA*eA*eA*eT*eG*eG*eT*eG*e[5mC]*eT*eA*eG) [compound 327913]; condition met
327919 (antisense eG*eA*eA*eA*e[5mC]*e[5mC]*e[5mC]*eA*eG*e[5mC]*eA*eG*eA*e[5mC]*eA*eA*eT*eG*eT*eA*eG*e[5mC]*eT) [compound 327919]; condition met
327888 (antisense eA*eA*eT*eG*e[5mC]*e[5mC]*e[5mC]*e[5mC]*eT*eA*eA*eA*eA*eA*eT*e[5mC]*e[5mC]*eT*eT*eA*eT) [compound 327888]; condition not met
327890 (antisense eA*eG*e[5mC]*eA*e[5mC]*eA*eA*eA*e[5mC]*eT*eA*e[5mC]*eT*eA*e[5mC]*e[5mC]*eT*e[5mC]*eA) [compound 327890]; condition not met
327954 (antisense eA*e[5mC]*eA*eA*eA*eG*eT*eT*e[5mC]*eT*eG*eT*eG*eA*eT*eG*e[5mC]*eA*e[5mC]*eT*eG*eA) [compound 327954]; condition met
327903 (antisense eA*eA*e[5mC]*eT*eA*eT*eA*e[5mC]*eA*eA*e[5mC]*e[5mC]*eT*eA*e[5mC]*eT*eA*e[5mC]*e[5mC]*eT*e[5mC]*eA) [compound 327903]; condition not met
327905 (antisense e[5mC]*eA*eG*eA*e[5mC]*eT*e[5mC]*e[5mC]*eG*eG*eT*eG*eG*eA*eA*eT*eG*eA*eA*eG*eG*eA) [compound 327905]; condition met
327880 (antisense eA*e[5mC]*eA*eA*eA*eT*eT*e[5mC]*eG*eG*eT*eT*e[5mC]*eT*eA*e[5mC]*eA*eG*eG*eG*eT*eA) [compound 327880]; condition met
